Test system: MCF-7 breast cancer cell line
Procedure summary: MCF-7 breast cancer cell line MTT assay
Assay type: cell-based
Condition parameters: Homo sapiens, MCF7, 48 h, MTT assay, 48 hours; ± SD from three independent experiments; NA: did not show anticancer activity at 30 µM
pIC50: −log10 of the molar value.
Measurement label: pIC50

Compound	pIC50
O=C(CC(c1cc2ccccc2o1)c1c[nH]c2ccccc12)c1ccc(Cl)cc1 (stereo not drawn)	4.71
COc1cccc(C(=O)CC(c2cc3ccccc3o2)c2c[nH]c3cc(F)ccc23)c1 (stereo not drawn)	4.64
COc1ccccc1C(=O)CC(c1cc2ccccc2o1)c1c[nH]c2ccc(Br)cc12 (stereo not drawn)	4.54

I: O=C(CC(c1cc2ccccc2o1)c1c[nH]c2ccccc12)c1ccc(F)cc1 (stereo not drawn)
II: O=C(CC(c1cc2ccccc2o1)c1c[nH]c2ccc(Br)cc12)c1ccc(F)cc1 (stereo not drawn)
III: COc1cccc2c1C(=O)c1c(O)c3c(c(O)c1C2=O)C[C@@](O)(C(=O)CO)C[C@@H]3O[C@H]1C[C@H](N)[C@H](O)[C@H](C)O1 [Doxorubicin, doxorubicin, reference compound]
// sort entries: pIC50, high to low Order the labels as requested and list them.
III, I, II
(III: 6.10, I: 4.91, II: 4.59)
